target: AchR (Homo sapiens, UniProt P02708); experiment: ELISA of screened peptide phages on AchR versus streptavidin (OD450); type: binding; conditions: ELISA of selected 14-mer (L3) peptide phages on AchR, absorbance at 450 nm; Spep-2 positive control
Sequence (P02708 21-457): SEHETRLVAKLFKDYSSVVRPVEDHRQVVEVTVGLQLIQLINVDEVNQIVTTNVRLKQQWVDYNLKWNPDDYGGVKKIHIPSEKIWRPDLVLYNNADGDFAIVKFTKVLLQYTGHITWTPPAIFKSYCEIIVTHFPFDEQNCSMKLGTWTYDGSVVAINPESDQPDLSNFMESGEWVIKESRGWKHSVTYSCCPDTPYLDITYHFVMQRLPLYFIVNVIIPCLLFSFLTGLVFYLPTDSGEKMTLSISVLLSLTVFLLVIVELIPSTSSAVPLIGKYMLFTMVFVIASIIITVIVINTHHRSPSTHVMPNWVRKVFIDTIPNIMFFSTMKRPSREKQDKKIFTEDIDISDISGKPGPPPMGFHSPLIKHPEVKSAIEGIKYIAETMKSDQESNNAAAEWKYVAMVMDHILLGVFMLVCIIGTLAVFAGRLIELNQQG
Heads up, the class ranges for OD are low group = under 0.7, middle group = from 0.7 up to 0.8, high group = 0.8 and over

Query :: Categorize the following entry: L3-3 (SGVRYRKWWIRSVV; AchR binding peptide) [Peptide L3-3]
Result :: high group

Query :: Categorize the following entry: L3-153 (FHTKLRKPIPKIDM; AchR binding peptide) [Peptide L3-153]
Result :: middle group

Query :: Categorize the following entry: L3-39 (DDVKQRKKHPRVQT; AchR binding peptide) [Peptide L3-39]
Result :: low group

Query :: Categorize the following entry: L3-166 (EYVKAKRTPWKYVV; AchR binding peptide) [Peptide L3-166]
Result :: low group

Query :: Categorize the following entry: L3-197 (QQIKYKRPTYRMVC; AchR binding peptide) [Peptide L3-197]
Result :: middle group

---

Reported values of OD for individual entries
biological target: AchR (Homo sapiens); assay: ELISA of screened peptide phages on AchR versus streptavidin (OD450); format: binding; settings: phage ELISA, absorbance at 450 nm, 5 μg/ml AchR; 4th and 5th round biopanning phages
Write the number on its own, no unit after it.

Below, 4 sequences whose answers are already recorded.
sequence-entry: RHKRMLWR [Peptide L1-131]
system-under-test: AchR (Homo sapiens)
OD: 0.505
--
sequence-entry: RLRRRYRR [Peptide L1-45]
system-under-test: AchR (Homo sapiens)
OD: 0.597
--
sequence-entry: KPKREMHK [Peptide L1-79]
system-under-test: AchR (Homo sapiens)
OD: 0.583
--
sequence-entry: RSKKINNK [Peptide L1-71]
system-under-test: AchR (Homo sapiens)
OD: 0.618

# ---- query sequence ----
Query :: Which measured OD belongs to RPKRSPSK [Peptide L1-117] , tested on AchR (Homo sapiens)?
Result :: 0.508

---

target: AchR (Homo sapiens, UniProt P02708); test: ELISA of screened peptide phages on AchR versus streptavidin (OD450); assay type: binding; settings: phage ELISA, absorbance at 450 nm, 5 μg/ml AchR; 4th and 5th round biopanning phages
Is OD at least 0.4? Then Satisfied. If not, Not satisfied.

As a guide, the following entries are already answered.
sequence-entry: KLKRAMLK [Peptide L1-169]
system-under-test: AchR (Homo sapiens, UniProt P02708)
discrete-label: Satisfied
--
sequence-entry: KVKKIYYR [Peptide L1-144]
system-under-test: AchR (Homo sapiens, UniProt P02708)
discrete-label: Satisfied

Query :: Tell me whether OD is at least 0.4 here: KSKRPEGR [Peptide L1-122]
Result :: Not satisfied

Query :: Tell me whether OD is at least 0.4 here: RHKRQQDK [Peptide L1-186]
Result :: Satisfied

Query :: Tell me whether OD is at least 0.4 here: RQKKPWVK [Peptide L1-31]
Result :: Satisfied

Query :: Tell me whether OD is at least 0.4 here: GGGRRRRRRRR [Peptide L2-204, reference compound]
Result :: Not satisfied

Query :: Tell me whether OD is at least 0.4 here: KHKKLNQR [Peptide L1-7]
Result :: Satisfied

Query :: Tell me whether OD is at least 0.4 here: KPKKGGWK [Peptide L1-148]
Result :: Satisfied

Query :: Tell me whether OD is at least 0.4 here: KFKRTEGR [Peptide L1-19]
Result :: Satisfied

Query :: Tell me whether OD is at least 0.4 here: KPKRSAPR [Peptide L1-125]
Result :: Not satisfied

Query :: Tell me whether OD is at least 0.4 here: KTRRSACR [Peptide L1-134]
Result :: Not satisfied

Query :: Tell me whether OD is at least 0.4 here: RNKRDENK [Peptide L1-29]
Result :: Satisfied

Query :: Tell me whether OD is at least 0.4 here: KMRRWWLK [Peptide L1-190]
Result :: Satisfied

Query :: Tell me whether OD is at least 0.4 here: KGKKYYQK [Peptide L1-105]
Result :: Satisfied
